System: Plasmodium falciparum 3D7
Experiment: SYBR Green assay, growth inhibition of Plasmodium falciparum cultured in vitro
Format: cell-based
Conditions: Plasmodium falciparum, 3D7; standard antimalarial drugs given for comparison, source of the values not stated; read-out: IC50
Description: Plasmodium falciparum in the ring stage was synchronized. Smearing was carried out and the infection rate was counted. The synchronized parasitized red blood cells, healthy red blood cells and mediums were matched in a reasonable ratio, resulting in an in vitro culture system of plasmodia (ring bodies, 2 to 4 hours-old) with a hematocrit of 2% and an infection rate of 1%. […]
pIC50: −log10 of the molar value.
reported_metric: pIC50

>  <molecule>
OC(c1cc(C(F)(F)F)nc2c(C(F)(F)F)cccc12)C1CCCCN1 (stereo not shown) [mefloquine, reference compound]

>  <measurement>
~8.40

$$$$
